Listed next: entries and their corresponding EC50.
# assay.target: ghrelin receptor (Homo sapiens)
# Sequence (Q92847 whole entry): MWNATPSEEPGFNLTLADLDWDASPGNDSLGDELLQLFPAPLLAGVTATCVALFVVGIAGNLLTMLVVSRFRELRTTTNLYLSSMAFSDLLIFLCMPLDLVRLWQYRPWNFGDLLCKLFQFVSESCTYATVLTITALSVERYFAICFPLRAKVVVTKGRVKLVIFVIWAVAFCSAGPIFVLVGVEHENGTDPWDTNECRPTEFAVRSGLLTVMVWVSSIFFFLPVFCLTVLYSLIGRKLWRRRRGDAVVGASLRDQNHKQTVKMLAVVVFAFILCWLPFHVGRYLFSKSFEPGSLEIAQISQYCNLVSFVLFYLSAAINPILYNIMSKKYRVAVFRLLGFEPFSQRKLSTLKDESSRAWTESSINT
# measurement.description: IP-One assay
# condition.parameters: SEM
Square brackets hold non-standard residues; d marks the D form. Peptide text beside a SMILES is read from it. Trp(3S-Ph) = N[C@H](C(=O)O)[C@@H](c1ccccc1)c1c[nH]c2ccccc12; Trp(βR-Ph) = N[C@H](C(=O)O)[C@H](c1ccccc1)c1c[nH]c2ccccc12; d2Nal = N[C@H](Cc1ccc2ccccc2c1)C(=O)O; dBta = N[C@H](Cc1csc2ccccc12)C(=O)O; Inp = O=C(O)C1CCNCC1
// note: answer is a bare numeric in µM

See these solved cases before continuing.
INSERT INTO results (molecule, test_readout, endpoint_result) VALUES
  ('CC(C)C[C@H](NC(=O)[C@H](CC(C)C)NC(=O)[C@@H](Cc1c[nH]c2ccccc12)NC(=O)[C@@H](NC(=O)[C@@H](Cc1c[nH]c2ccccc12)NC(=O)[C@@H](N)CCCCN)[C@H](c1ccccc1)c1c[nH]c2ccccc12)C(N)=O [Peptide 11, Kw‐Wrf‐wLL‐NH2] (H-K[dW][Trp(βR-Ph)][dW]LL-NH2; N-terminus assumed)', 'EC50', 0.148),
  ('C[C@H](N)C(=O)N[C@H](Cc1c[nH]c2ccccc12)C(=O)N[C@@H](Cc1ccccc1)C(=O)N[C@H](C(=O)N1CCC(C(N)=O)CC1)[C@@H](c1ccccc1)c1c[nH]c2ccccc12 [Peptide 21, AwF‐Wsf‐Isn‐NH2] (H-A[dW]F[Trp(3S-Ph)][Inp]-NH2; N-terminus assumed)', 'EC50', 0.0832),
  ('C[C@H](N)C(=O)N[C@H](Cc1c[nH]c2ccccc12)C(=O)N[C@@H](Cc1ccccc1)C(=O)N[C@H](Cc1ccc2ccccc2c1)C(=O)N1CCC(C(N)=O)CC1 [Peptide 18, AwFn‐Isn‐NH2, reference compound] (H-A[dW]F[d2Nal][Inp]-NH2; N-terminus assumed)', 'EC50', 0.0166),
  ('CC(C)C[C@H](NC(=O)[C@H](CC(C)C)NC(=O)[C@@H](Cc1c[nH]c2ccccc12)NC(=O)[C@@H](NC(=O)[C@@H](Cc1csc2ccccc12)NC(=O)[C@@H](N)CCCCN)[C@H](c1ccccc1)c1c[nH]c2ccccc12)C(N)=O [Peptide 16, Kb‐Wrf‐wLL‐NH2] (H-K[dBta][Trp(βR-Ph)][dW]LL-NH2; N-terminus assumed)', 'EC50', 0.55);

Note EC50 for the molecule shown: CC(C)C[C@H](NC(=O)[C@H](CC(C)C)NC(=O)[C@@H](NC(=O)[C@H](Cc1ccccc1)NC(=O)[C@@H](Cc1c[nH]c2ccccc12)NC(=O)[C@@H](N)CCCCN)[C@H](c1ccccc1)c1c[nH]c2ccccc12)C(N)=O [Peptide 13, KwF‐Wrf‐LL‐NH2]
0.912

Note EC50 for the molecule shown: CC(C)C[C@H](NC(=O)[C@H](CC(C)C)NC(=O)[C@@H](Cc1c[nH]c2ccccc12)NC(=O)[C@@H](NC(=O)[C@@H](Cc1c[nH]c2ccccc12)NC(=O)[C@@H](N)CCCCN)[C@@H](c1ccccc1)c1c[nH]c2ccccc12)C(N)=O [Peptide 12, Kw‐Wsf‐wLL‐NH2] (H-K[dW][Trp(3S-Ph)][dW]LL-NH2; N-terminus assumed)
0.282

Note EC50 for the molecule shown: CC(C)C[C@H](NC(=O)[C@H](CC(C)C)NC(=O)[C@@H](Cc1c[nH]c2ccccc12)NC(=O)[C@H](Cc1ccccc1)NC(=O)[C@@H](Cc1c[nH]c2ccccc12)NC(=O)[C@@H](N)CCCCN)C(N)=O [Peptide 8, KwFwLL‐NH2, reference compound]
0.182

Note EC50 for the molecule shown: C[C@H](N)C(=O)N[C@H](Cc1c[nH]c2ccccc12)C(=O)N[C@@H](Cc1ccccc1)C(=O)N[C@H](C(=O)N1CCC(C(N)=O)CC1)[C@H](c1ccccc1)c1c[nH]c2ccccc12 [Peptide 20, AwF‐Wrf‐Isn‐NH2] (H-A[dW]F[Trp(βR-Ph)][Inp]-NH2; N-terminus assumed)
0.0275
